tested system: recombinant soluble homotrimeric HA of A/Anhui/1/05 (H5N1) (Influenza A virus A/Anhui/1/2005(H5N1))
method: trimeric HA microarray, transfection supernatant set 3
experimental setup: remark: other sources report otherwise
Please go through the items and note down their Trimeric HA Binding: RLU.
Note: unit RLU is implicit; provide only the numeric part.

# input binder: TCN-504 (3251_K17) (antibody, V domains shown) VH: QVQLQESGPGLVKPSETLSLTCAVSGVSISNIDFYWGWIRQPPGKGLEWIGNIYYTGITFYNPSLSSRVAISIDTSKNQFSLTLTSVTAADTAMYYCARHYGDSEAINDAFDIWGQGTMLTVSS VL: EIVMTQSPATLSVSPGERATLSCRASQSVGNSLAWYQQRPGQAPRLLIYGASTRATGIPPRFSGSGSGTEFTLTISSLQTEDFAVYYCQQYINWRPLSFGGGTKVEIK ; wanted: its Trimeric HA Binding: RLU
30000

Dear colleague, I am looking for the recorded Trimeric HA Binding: RLU of the following binder: TCN-530 (5248_H10a) (antibody, V domains shown) VH: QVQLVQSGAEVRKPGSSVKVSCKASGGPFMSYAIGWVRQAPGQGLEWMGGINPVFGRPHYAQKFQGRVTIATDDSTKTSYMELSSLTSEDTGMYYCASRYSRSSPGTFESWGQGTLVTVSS VL: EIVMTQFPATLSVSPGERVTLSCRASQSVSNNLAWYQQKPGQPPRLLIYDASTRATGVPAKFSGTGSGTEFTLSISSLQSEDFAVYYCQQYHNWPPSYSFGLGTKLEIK
97

Need Trimeric HA Binding: RLU of TCN-531 (5091_H13) (antibody, V domains shown) VH: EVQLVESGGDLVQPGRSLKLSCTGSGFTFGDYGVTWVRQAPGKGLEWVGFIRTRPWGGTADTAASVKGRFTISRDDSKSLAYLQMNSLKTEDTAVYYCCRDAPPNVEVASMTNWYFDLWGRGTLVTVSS VL: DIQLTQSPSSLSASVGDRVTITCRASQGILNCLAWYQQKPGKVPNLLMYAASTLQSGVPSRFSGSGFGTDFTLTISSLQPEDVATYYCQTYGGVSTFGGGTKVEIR , thanks.
76

Fill in: Trimeric HA Binding: RLU of TCN-523 (5248_A17) (antibody, V domains shown) VH: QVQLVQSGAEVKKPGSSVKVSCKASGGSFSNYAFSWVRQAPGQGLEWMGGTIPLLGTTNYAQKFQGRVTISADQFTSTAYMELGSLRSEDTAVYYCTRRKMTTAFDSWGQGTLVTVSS VL: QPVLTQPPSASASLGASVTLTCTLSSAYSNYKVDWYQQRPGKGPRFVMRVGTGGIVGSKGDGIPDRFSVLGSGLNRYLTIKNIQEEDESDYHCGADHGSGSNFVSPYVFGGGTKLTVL is ___
546
